# system_tested: Human BCMA (human) (UniProt Q02223)
# assay_name: SPR, IgG immobilised, huBCMA analyte, 25 C
experimental_endpoint: T½

Sample L1.GDF/L3.NY/H3.AP (antibody, V domains shown) VH: EVQLLESGGGLVQPGGSLRLSCAASGFTFGSYAMTWVRQAPGKGLEWVSAISGSGGNTFYADSVKGRFTISRDNSKNTLYLQMNSLRAEDTAVYYCARVSPIAAPMDYWGQGTLVTVSS VL: EIVLTQSPGTLSLSPGERATLSCRASQSVGDFYLAWYQQKPGQAPRLLIYGASSRATGIPDRFSGSGSGTDFTLTISRLEPEDFAVYYCQHYNYPPSFTFGQGTKVEIK — what was its T½?
8.21 min
